Data provenance: the supplement of paper PMC10724198

Tested on: Saccharomyces cerevisiae;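 further: PSI per variant is the weighted mean of its sequencing read distribution over the sorted stability bins, counting only variants with over 10 reads summed across bins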
Assay: protein stability index of tFT-peptide fusion in deletion strain of DOA10 (PSI (0-1 scale)); higher = more stable (slower turnover)
protein stability index by entry:
readout.type: protein stability index

- GLYMCSVGWWFR: 0.557
- AITLPMCPLPLR: 0.664
- GLYMCSVGPWFR: 0.688
- CLVSLPYLLFFR: 0.64
- GLYMCSVGCWFT: 0.484
- AIALPMCPLLLR: 0.632
- CLVSLPIRLFFR: 0.658
- GLYMCSVGCWFRE: 0.641
- AITLPMCPLMLR: 0.611
- AITLPMCPLLMR: 0.606
- NLVSLPILLFFR: 0.629
- AITLPMCPLDLR: 0.685
- RVTRLDAIYHRI: 0.723
- GLYMCSVGCNFR: 0.648
- GHYMCSVGCWFR: 0.643
- CHVSLPILLFFR: 0.624
- RSLRVLLDLYFR: 0.654
- CLVSLPILLFFRR: 0.593
- GLYMCSVGCWAR: 0.5
- RSLRVLLPRYFR: 0.664
- RSLRVLPPLYFR: 0.697
- CLVSLPALLFFR: 0.664
- CLVSLPILLFER: 0.625
- LVTRLDAIYFRI: 0.604
- IITLPMCPLLLR: 0.597
- RVTRLDAIMFRI: 0.686
- AITLPKCPLLLR: 0.663
- GLYMQSVGCWFR: 0.678
- EITLPMCPLLLR: 0.656
- RVTRLDAIYTRI: 0.716
- GLYMCSVGQWFR: 0.671
- GLFMCSVGCWFR: 0.549
- RSLRHLLPLYFR: 0.693
- CLVSLPILLFRR: 0.66
- RSLRELLPLYFR: 0.698
- RVTRLDAIYIRI: 0.683
- CYVSLPILLFFR: 0.582
- AITHPMCPLLLR: 0.676
- RSLRVLLPAYFR: 0.65
- GLYMTSVGCWFR: 0.709
- RSLRVLLPVYFR: 0.632
